study.system: T1, recombinant His-tagged full-length ERG, P11308
T1 chain: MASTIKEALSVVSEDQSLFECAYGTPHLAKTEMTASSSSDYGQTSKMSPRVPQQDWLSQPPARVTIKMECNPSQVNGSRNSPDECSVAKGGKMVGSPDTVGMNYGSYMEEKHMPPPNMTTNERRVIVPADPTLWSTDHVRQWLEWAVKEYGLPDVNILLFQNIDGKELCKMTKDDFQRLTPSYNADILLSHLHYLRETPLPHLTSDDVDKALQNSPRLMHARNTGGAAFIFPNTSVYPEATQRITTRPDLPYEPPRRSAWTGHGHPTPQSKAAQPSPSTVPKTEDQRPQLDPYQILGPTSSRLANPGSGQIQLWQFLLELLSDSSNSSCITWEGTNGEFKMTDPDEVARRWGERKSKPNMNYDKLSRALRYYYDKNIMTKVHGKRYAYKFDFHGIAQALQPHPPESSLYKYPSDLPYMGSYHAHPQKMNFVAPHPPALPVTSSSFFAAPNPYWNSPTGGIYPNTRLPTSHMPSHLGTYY
assay.name: OctetRED BLI
# maps each entry to its Kd
Please state the figure in nM; there is no need to write the unit.

binder: GRRRQRRKKRGGPLSGFSL (modifications not checked) [RI-EIP2 retroinverso peptidomimetic]
Kd, nM: 1280

What the record says about GRRRQRRKKRGGTFLYPPL (modifications not checked) [RI-EIP1 retroinverso peptidomimetic] : Kd is 940
